# IC50 per record follows
molecular target: mTORC1 (Homo sapiens, UniProt P42345+P62942); construct: endogenous in cells; host or cells: PC3 cells (human prostate adenocarcinoma); experiment: Inhibition assay for mTORC1: phosphorylation of pS6K at Thr389, AlphaLISA SureFire in PC3 cells; assay type: cell-based; details: PC3 cells, 24 hours treatment, pS6K Thr389; analogs substituted at C40 and C16 (C16 diastereomer mixtures not isolated); read-out: pIC50 mTORC1 (converted)

COMPOUND: CO[C@@H]1C[C@H](C[C@@H](C)[C@@H]2CC(=O)[C@H](C)/C=C(\C)[C@@H](O)[C@@H](OC)C(=O)[C@H](C)C[C@H](C)/C=C/C=C/C=C(\C)C(OCC3CCOCC3)C[C@@H]3CC[C@@H](C)[C@@](O)(O3)C(=O)C(=O)N3CCCCC3C(=O)O2)CC[C@H]1OCCO (stereo partly drawn) [Compound 86]
IC50: 0.316 to 3.16 nM
--
COMPOUND: CO[C@@H]1C[C@H](C[C@@H](C)[C@@H]2CC(=O)[C@H](C)/C=C(\C)[C@@H](O)[C@@H](OC)C(=O)[C@H](C)C[C@H](C)/C=C/C=C/C=C(\C)C(OCCc3ccccc3)C[C@@H]3CC[C@@H](C)[C@@](O)(O3)C(=O)C(=O)N3CCCCC3C(=O)O2)CC[C@H]1OC(=O)N(C)CCO (stereo partly drawn) [Compound 105]
IC50: < 0.316 nM
--
COMPOUND: CO[C@@H]1C[C@H](C[C@@H](C)[C@@H]2CC(=O)[C@H](C)/C=C(\C)[C@@H](O)[C@@H](OC)C(=O)[C@H](C)C[C@H](C)/C=C/C=C/C=C(\C)C(OCCc3ccccc3)C[C@@H]3CC[C@@H](C)[C@@](O)(O3)C(=O)C(=O)N3CCCCC3C(=O)O2)CC[C@H]1OC(=O)N(CCO)CCO (stereo partly drawn) [Compound 112]
IC50: < 0.316 nM
